- Tested on: murine macrophage indicator cell line, RAW267.4
- ASSAY PROTOCOL: Inhibition of nitric oxide production in LPS-stimulated macrophages (Griess reaction)
- Format: cell-based
- ASSAY CONDITIONS: Mus musculus; single substances; RAW267.4 cells, LPS 1 μg/ml, 24 hours
READOUT: IC50 (µM)
Quick reminder: number only, in µM, skip the unit.

Q: Field request: IC50 | item: Oc1ccc(C=Cc2cc(O)cc(O)c2)cc1 [Resveratrol, reference compound]
A: 31

* * *

- System: murine macrophage indicator cell line, RAW267.4
- ASSAY PROTOCOL: Inhibition of nitric oxide production in LPS-stimulated macrophages (Griess reaction)
- Format: cell-based
- ASSAY CONDITIONS: single substances; RAW267.4 cells, LPS 1 μg/ml, 24 hours
IC50 overview
Use µM as the unit, but write only the number.

Some solved cases for reference:
COMPOUND: C=CC/C=C\C/C=C\CCCCCCCc1cc(O)cc(O)c1 [Cardoltriene]
TARGET SYSTEM: murine macrophage indicator cell line, RAW267.4
VALUE UNIT: µM
IC50: 4.9
//
COMPOUND: CCC/C=C\C/C=C\CCCCCCCc1cccc(O)c1C(=O)O [(15:2)-Anacardic acid]
TARGET SYSTEM: murine macrophage indicator cell line, RAW267.4
VALUE UNIT: µM
IC50: 82.4
//
COMPOUND: O=C(O[C@@H]1Cc2c(O)cc(O)cc2O[C@@H]1c1cc(O)c(O)c(O)c1)c1cc(O)c(O)c(O)c1 [EGCG, reference compound]
TARGET SYSTEM: murine macrophage indicator cell line, RAW267.4
VALUE UNIT: µM
IC50: 33

Q: State the recorded IC50 for this entry: C=CC/C=C\C/C=C\CCCCCCCc1cccc(O)c1C(=O)O [(15:3)-Anacardic acid]
A: 7.4
